# tgt: Epidermal growth factor receptor (Homo sapiens, UniProt P00533)
# Sequence (P00533 whole entry): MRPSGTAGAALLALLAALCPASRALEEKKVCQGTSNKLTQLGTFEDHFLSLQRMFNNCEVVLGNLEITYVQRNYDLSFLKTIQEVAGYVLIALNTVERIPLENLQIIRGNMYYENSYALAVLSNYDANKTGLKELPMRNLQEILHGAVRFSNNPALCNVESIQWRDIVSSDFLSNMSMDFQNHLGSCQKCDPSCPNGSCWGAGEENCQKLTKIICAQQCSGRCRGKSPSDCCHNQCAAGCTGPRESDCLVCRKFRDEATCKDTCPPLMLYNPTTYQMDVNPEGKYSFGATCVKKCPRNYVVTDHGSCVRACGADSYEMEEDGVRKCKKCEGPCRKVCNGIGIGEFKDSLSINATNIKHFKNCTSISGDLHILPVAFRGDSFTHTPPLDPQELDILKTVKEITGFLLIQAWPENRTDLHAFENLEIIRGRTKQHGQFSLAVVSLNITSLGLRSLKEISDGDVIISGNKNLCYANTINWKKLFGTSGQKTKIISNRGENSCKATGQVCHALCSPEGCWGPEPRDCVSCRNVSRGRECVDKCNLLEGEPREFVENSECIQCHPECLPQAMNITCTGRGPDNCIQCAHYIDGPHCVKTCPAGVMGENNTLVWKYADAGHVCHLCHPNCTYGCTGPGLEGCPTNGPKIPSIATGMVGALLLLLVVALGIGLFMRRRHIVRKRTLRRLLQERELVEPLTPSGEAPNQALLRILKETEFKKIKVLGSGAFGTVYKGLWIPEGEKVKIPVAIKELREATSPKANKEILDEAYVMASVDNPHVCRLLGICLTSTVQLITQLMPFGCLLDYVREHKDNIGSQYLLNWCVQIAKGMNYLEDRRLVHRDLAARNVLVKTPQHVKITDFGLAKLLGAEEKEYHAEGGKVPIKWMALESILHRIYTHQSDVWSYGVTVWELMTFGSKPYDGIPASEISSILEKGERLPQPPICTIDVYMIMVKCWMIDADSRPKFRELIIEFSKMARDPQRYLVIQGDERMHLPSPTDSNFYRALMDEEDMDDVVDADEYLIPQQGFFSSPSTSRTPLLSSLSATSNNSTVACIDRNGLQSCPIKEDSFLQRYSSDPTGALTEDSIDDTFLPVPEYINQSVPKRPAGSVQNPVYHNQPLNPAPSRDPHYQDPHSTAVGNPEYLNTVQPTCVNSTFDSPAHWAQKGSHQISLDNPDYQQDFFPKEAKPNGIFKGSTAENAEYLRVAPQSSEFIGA
# measurement_description: Inhibition of wild type EGFR (unknown origin) at 80 nM pretreated with substrate for 10 mins followed by ATP addition measured after 60 mins by mobility shift assay relative to control
Use 30% as the dividing line for inhibition, with the line itself on the true (1) side and lower values as false (0).

Please review the following examples before continuing.
C=CC(=O)Nc1cccc(Oc2nc(Nc3ccc(N4CCN(C)CC4)c(N)c3)nc3[nH]ccc23)c1; true (1)
C=CC(=O)Nc1cccc(Oc2nc(Nc3ccc(N4CCN(C)CC4)c(Cl)c3)nc3[nH]ccc23)c1; true (1)
C=CC(=O)Nc1cccc(Oc2nc(Nc3ccc(N4CCN(C)CC4)c(OC)c3)nc3[nH]ccc23)c1; true (1)
C=CC(=O)Nc1cccc(Oc2nc(Nc3ccc(N4CCN(C)CC4)c([N+](=O)[O-])c3)nc3c2ccn3COC(=O)C(C)(C)C)c1; false (0)
C=CC(=O)Nc1cccc(Oc2nc(Nc3ccc(N4CCN(C)CC4)c([N+](=O)[O-])c3)nc3[nH]ccc23)c1; true (1)

Now look at this entry.
Query: Given the entry C=CC(=O)Nc1cccc(Oc2nc(Nc3ccc(N4CCN(C)CC4)c(N)c3)nc3c2ccn3COC(=O)C(C)(C)C)c1 , answer whether its inhibition meets or surpasses 30%.
Reply: false (0)

----------
# tgt: Epidermal growth factor receptor (Homo sapiens, UniProt P00533, L858R)
# Sequence (P00533 25-1210 L858R limits assumed): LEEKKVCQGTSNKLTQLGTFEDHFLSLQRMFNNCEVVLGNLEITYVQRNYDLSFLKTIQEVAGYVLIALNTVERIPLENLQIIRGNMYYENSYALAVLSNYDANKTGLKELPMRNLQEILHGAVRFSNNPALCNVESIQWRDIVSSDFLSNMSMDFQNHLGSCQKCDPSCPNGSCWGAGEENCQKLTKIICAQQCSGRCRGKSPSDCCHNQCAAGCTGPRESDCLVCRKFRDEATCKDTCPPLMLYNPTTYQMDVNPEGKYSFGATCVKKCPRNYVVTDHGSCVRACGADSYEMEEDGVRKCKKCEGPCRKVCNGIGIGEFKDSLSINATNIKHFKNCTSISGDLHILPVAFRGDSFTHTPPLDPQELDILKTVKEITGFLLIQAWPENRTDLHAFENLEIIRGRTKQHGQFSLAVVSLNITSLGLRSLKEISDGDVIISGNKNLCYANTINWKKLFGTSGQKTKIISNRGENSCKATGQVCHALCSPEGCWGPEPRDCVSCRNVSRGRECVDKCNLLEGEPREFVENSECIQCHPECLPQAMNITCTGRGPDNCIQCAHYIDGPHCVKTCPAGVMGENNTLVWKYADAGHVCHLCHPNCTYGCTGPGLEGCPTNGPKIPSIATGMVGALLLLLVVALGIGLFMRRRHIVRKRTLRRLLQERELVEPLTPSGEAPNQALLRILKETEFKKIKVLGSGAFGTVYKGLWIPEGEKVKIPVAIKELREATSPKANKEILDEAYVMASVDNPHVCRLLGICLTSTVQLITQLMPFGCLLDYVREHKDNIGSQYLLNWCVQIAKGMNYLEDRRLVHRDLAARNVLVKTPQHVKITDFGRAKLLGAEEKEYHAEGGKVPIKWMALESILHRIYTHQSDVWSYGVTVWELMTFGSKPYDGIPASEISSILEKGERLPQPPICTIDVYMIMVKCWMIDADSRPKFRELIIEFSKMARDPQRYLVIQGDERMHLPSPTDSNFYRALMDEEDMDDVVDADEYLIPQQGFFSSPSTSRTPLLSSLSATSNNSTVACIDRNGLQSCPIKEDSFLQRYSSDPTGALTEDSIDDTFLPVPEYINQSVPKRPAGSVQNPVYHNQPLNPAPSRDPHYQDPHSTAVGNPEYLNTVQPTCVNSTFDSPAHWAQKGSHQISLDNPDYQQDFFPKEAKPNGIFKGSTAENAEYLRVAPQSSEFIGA
# measurement_description: Inhibition of […] EGFR L858R mutant (unknown origin) pretreated with substrate for 10 mins followed by ATP addition measured after 60 mins by mobility shift assay
Consider the following compounds and their measured pIC50 readings.
pIC50 here: minus log base 10 of the concentration, concentration in moles per litre.

C=CC(=O)Nc1cccc(Oc2nc(Nc3ccc(N4CCN(C)CC4)c([N+](=O)[O-])c3)nc3[nH]ccc23)c1; 9.41

As a next step, examine the compound that follows.
Query: Given the entry C=CC(=O)Nc1cccc(Oc2nc(Nc3ccc(N4CCN(C)CC4)c(N)c3)nc3[nH]ccc23)c1 , report its measured pIC50.
Reply: 9.68

----------
# Tested on: Epidermal growth factor receptor (Homo sapiens), P00533 [L858R,T790M,C797S]
# Sequence (P00533 whole entry T790M/C797S/L858R): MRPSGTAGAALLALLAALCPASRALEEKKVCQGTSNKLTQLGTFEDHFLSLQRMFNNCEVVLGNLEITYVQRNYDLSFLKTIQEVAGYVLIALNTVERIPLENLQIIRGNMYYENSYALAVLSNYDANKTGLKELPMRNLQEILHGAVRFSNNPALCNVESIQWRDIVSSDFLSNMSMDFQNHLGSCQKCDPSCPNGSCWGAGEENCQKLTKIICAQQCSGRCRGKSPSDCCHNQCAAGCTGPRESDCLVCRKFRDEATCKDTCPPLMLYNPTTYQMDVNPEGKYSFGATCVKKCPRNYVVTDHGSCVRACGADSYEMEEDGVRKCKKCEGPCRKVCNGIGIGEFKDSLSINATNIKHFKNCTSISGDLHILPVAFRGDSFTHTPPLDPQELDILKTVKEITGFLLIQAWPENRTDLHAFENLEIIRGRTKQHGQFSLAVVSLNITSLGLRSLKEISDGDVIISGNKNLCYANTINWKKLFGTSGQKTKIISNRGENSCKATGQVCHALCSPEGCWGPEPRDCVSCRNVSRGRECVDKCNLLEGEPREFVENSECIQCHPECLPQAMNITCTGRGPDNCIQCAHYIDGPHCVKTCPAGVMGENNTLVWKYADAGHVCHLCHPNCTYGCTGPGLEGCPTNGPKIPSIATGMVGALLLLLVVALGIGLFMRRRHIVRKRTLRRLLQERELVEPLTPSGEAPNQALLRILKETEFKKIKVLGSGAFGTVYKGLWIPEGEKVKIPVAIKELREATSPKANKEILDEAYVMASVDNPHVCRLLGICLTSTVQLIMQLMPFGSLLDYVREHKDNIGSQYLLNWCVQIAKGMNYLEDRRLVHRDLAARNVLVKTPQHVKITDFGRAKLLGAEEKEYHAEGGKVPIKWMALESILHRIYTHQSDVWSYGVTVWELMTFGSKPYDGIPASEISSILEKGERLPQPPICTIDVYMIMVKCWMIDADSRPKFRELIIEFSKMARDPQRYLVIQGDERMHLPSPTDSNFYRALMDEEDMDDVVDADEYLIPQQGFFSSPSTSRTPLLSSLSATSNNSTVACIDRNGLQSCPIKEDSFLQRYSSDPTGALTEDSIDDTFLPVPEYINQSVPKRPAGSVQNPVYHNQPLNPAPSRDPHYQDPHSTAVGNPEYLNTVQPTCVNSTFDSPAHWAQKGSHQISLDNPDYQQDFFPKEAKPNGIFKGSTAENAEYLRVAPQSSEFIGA
# measurement_description: Inhibition of […] EGFR L858R/T790M/C797S mutant (unknown origin) at 2 nM pretreated with substrate for 10 mins followed by ATP addition measured after 60 mins by mobility shift assay relative to control
Consider the following molecules and their measured inhibition readings.
The reply should contain only the number, in %.

C=CC(=O)Nc1cccc(Oc2nc(Nc3ccc(N4CCN(C)CC4)c(N)c3)nc3[nH]ccc23)c1; 8
C=CC(=O)Nc1cccc(Oc2nc(Nc3ccc(N4CCN(C)CC4)c(Cl)c3)nc3[nH]ccc23)c1; 9.2
C=CC(=O)Nc1cccc(Oc2nc(Nc3ccc(N4CCN(C)CC4)c([N+](=O)[O-])c3)nc3c2ccn3COC(=O)C(C)(C)C)c1; 8.4
C=CC(=O)Nc1cccc(Oc2nc(Nc3ccc(N4CCN(C)CC4)c(OC)c3)nc3[nH]ccc23)c1; 7.8
C=CC(=O)Nc1cccc(Oc2nc(Nc3ccc(N4CCN(C)CC4)c([N+](=O)[O-])c3)nc3[nH]ccc23)c1; 5.8

Query: Given the entry C=CC(=O)Nc1cccc(Oc2nc(Nc3ccc(N4CCN(C)CC4)c(N)c3)nc3c2ccn3COC(=O)C(C)(C)C)c1 , report its measured inhibition.
Reply: 3.6

----------
# tgt: Epidermal growth factor receptor (Homo sapiens, UniProt P00533, L858R/T790M)
# measurement_description: Inhibition of […] EGFR L858R/T790M mutant (unknown origin) pretreated with substrate for 10 mins followed by ATP addition measured after 60 mins by mobility shift assay
measurement_label: pIC50
pIC50 here: minus log base 10 of the concentration, concentration in moles per litre.

C=CC(=O)Nc1cccc(Oc2nc(Nc3ccc(N4CCN(C)CC4)c(N)c3)nc3[nH]ccc23)c1; 8.66

As a next step, examine the compound that follows.
Query: Given the entry C=CC(=O)Nc1cccc(Oc2nc(Nc3ccc(N4CCN(C)CC4)c([N+](=O)[O-])c3)nc3[nH]ccc23)c1 , report its measured pIC50.
Reply: 8.14

----------
# tgt: Epidermal growth factor receptor (Homo sapiens, UniProt P00533, DELE746)
# measurement_description: Inhibition of […] EGFR Del E746/A750 mutant (unknown origin) pretreated with substrate for 10 mins followed by ATP addition measured after 60 mins by mobility shift assay
measurement_label: IC50 (nM)
The reply should contain only the number, in nM.

C=CC(=O)Nc1cccc(Oc2nc(Nc3ccc(N4CCN(C)CC4)c([N+](=O)[O-])c3)nc3[nH]ccc23)c1; 10

As a next step, examine the compound that follows.
Query: Given the entry C=CC(=O)Nc1cccc(Oc2nc(Nc3ccc(N4CCN(C)CC4)c(N)c3)nc3[nH]ccc23)c1 , report its measured IC50.
Reply: 2

----------
# System: HCC827
# measurement_description: Cytotoxicity against human HCC827 cells harboring EGFR del E746-A750 mutant assessed as reduction in cell viability measured after 48 hrs by CCK8 assay
# Type: functional, cell-based
# applied_conditions: HCC827, 48 h
Consider the following compounds and their measured IC50 readings.
# answer = value followed by unit

C=CC(=O)Nc1cccc(Oc2nc(Nc3ccc(N4CCN(C)CC4)c(OC)c3)nc3[nH]ccc23)c1; 260 nM
C=CC(=O)Nc1cccc(Oc2nc(Nc3ccc(N4CCN(C)CC4)c([N+](=O)[O-])c3)nc3[nH]ccc23)c1; 110 nM

Query: Given the entry C=CC(=O)Nc1cccc(Oc2nc(Nc3ccc(N4CCN(C)CC4)c([N+](=O)[O-])c3)nc3c2ccn3COC(=O)C(C)(C)C)c1 , report its measured IC50.
Reply: 440 nM

Query: Given the entry C=CC(=O)Nc1cccc(Oc2nc(Nc3ccc(N4CCN(C)CC4)c(Cl)c3)nc3[nH]ccc23)c1 , report its measured IC50.
Reply: 120 nM

----------
# Test system: Epidermal growth factor receptor (Homo sapiens), P00533 [UNDEFINED MUTATION]
# Sequence (P00533 whole entry, looked up, stated change not applied): as the sequence (P00533 whole entry) above
# measurement_description: Inhibition of […] EGFR Del E746/A750 mutant (unknown origin) at 2 nM pretreated with substrate for 10 mins followed by ATP addition measured after 60 mins by mobility shift assay relative to control
measurement_label: inhibition (%)
The reply should contain only the number, in %.

Some solved entries appear below for comparison.
C=CC(=O)Nc1cccc(Oc2nc(Nc3ccc(N4CCN(C)CC4)c(N)c3)nc3c2ccn3COC(=O)C(C)(C)C)c1; 11
C=CC(=O)Nc1cccc(Oc2nc(Nc3ccc(N4CCN(C)CC4)c([N+](=O)[O-])c3)nc3[nH]ccc23)c1; 23
C=CC(=O)Nc1cccc(Oc2nc(Nc3ccc(N4CCN(C)CC4)c(OC)c3)nc3[nH]ccc23)c1; 25
C=CC(=O)Nc1cccc(Oc2nc(Nc3ccc(N4CCN(C)CC4)c([N+](=O)[O-])c3)nc3c2ccn3COC(=O)C(C)(C)C)c1; 0.41
C=CC(=O)Nc1cccc(Oc2nc(Nc3ccc(N4CCN(C)CC4)c(Cl)c3)nc3[nH]ccc23)c1; 44

Query: Epidermal growth factor receptor (Homo sapiens), P00533 [UNDEFINED MUTATION] / inhibition / C=CC(=O)Nc1cccc(Oc2nc(Nc3ccc(N4CCN(C)CC4)c(N)c3)nc3[nH]ccc23)c1 : value?
Reply: 63

----------
# System: HCC827
# measurement_description: Cytotoxicity against human HCC827 cells harboring EGFR del E746-A750 mutant assessed as reduction in cell viability measured after 48 hrs by CCK8 assay
# Type: functional, cell-based
# applied_conditions: HCC827, 48 h
Consider the following compounds and their measured pIC50 readings.
pIC50 here: minus log base 10 of the concentration, concentration in moles per litre.

C=CC(=O)Nc1cccc(Oc2nc(Nc3ccc(N4CCN(C)CC4)c(F)c3)nc3[nH]ccc23)c1 [ABIVERTINIB]; 7.00
C=CC(=O)Nc1cccc(Oc2nc(Nc3ccc(N4CCN(C)CC4)c(N)c3)nc3[nH]ccc23)c1; 7.34
C=CC(=O)Nc1cccc(Oc2nc(Nc3ccc(N4CCN(C)CC4)cc3)nc3[nH]ccc23)c1; 6.62

Query: Given the entry C=CC(=O)Nc1cccc(Oc2nc(Nc3ccc(N4CCN(C)CC4)c(N)c3)nc3c2ccn3COC(=O)C(C)(C)C)c1 , report its measured pIC50.
Reply: 6.48

----------
# Test system: Epidermal growth factor receptor (Homo sapiens), P00533 [T790M]
# Sequence (P00533 whole entry T790M): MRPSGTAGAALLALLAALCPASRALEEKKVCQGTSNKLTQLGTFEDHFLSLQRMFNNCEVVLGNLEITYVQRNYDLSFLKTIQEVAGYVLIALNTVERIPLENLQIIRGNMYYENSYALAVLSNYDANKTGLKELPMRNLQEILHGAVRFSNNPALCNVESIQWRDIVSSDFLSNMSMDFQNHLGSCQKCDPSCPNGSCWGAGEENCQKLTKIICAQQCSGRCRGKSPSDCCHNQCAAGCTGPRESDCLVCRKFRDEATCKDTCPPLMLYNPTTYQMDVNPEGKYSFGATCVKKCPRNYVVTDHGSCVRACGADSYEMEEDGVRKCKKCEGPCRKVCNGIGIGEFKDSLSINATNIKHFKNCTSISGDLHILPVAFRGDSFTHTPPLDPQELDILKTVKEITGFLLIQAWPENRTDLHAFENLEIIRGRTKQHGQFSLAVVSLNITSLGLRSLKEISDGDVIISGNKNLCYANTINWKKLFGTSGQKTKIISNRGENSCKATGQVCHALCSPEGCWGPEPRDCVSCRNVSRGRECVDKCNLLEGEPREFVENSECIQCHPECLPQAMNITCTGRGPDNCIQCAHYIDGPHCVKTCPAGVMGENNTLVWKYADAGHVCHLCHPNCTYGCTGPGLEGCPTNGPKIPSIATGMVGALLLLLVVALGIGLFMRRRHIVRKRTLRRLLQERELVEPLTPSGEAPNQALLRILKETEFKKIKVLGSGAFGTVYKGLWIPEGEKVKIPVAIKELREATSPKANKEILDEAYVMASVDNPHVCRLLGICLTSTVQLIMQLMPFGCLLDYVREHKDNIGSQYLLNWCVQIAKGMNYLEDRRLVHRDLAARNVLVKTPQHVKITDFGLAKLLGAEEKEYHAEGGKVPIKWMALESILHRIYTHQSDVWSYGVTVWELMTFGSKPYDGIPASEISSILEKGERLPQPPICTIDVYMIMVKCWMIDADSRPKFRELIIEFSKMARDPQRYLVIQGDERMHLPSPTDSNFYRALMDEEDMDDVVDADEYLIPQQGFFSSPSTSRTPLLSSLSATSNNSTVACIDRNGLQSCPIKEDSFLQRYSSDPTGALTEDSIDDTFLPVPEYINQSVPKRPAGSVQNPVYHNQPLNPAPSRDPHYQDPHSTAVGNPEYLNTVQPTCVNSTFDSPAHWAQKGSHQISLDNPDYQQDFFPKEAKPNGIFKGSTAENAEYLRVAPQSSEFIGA
# measurement_description: Inhibition of […] EGFR T790M mutant (unknown origin) at 2 nM pretreated with substrate for 10 mins followed by ATP addition measured after 60 mins by mobility shift assay relative to control
Use 8% as the dividing line for inhibition, with the line itself on the criterion met side and lower values as criterion not met.

Please review the following examples before continuing.
C=CC(=O)Nc1cccc(Oc2nc(Nc3ccc(N4CCN(C)CC4)c([N+](=O)[O-])c3)nc3[nH]ccc23)c1; criterion met
C=CC(=O)Nc1cccc(Oc2nc(Nc3ccc(N4CCN(C)CC4)c(N)c3)nc3[nH]ccc23)c1; criterion met
C=CC(=O)Nc1cccc(Oc2nc(Nc3ccc(N4CCN(C)CC4)c(OC)c3)nc3[nH]ccc23)c1; criterion met
C=CC(=O)Nc1cccc(Oc2nc(Nc3ccc(N4CCN(C)CC4)c(Cl)c3)nc3[nH]ccc23)c1; criterion met

Query: Given the entry C=CC(=O)Nc1cccc(Oc2nc(Nc3ccc(N4CCN(C)CC4)c(N)c3)nc3c2ccn3COC(=O)C(C)(C)C)c1 , answer whether its inhibition meets or surpasses 8%.
Reply: criterion not met

Data origin, for the record: ChEMBL document CHEMBL4828722
